# Assay system: human mGluR5 (Homo sapiens, UniProt P41594)
# Sequence (P41594 21-1180 isoform P41594-2 limits assumed): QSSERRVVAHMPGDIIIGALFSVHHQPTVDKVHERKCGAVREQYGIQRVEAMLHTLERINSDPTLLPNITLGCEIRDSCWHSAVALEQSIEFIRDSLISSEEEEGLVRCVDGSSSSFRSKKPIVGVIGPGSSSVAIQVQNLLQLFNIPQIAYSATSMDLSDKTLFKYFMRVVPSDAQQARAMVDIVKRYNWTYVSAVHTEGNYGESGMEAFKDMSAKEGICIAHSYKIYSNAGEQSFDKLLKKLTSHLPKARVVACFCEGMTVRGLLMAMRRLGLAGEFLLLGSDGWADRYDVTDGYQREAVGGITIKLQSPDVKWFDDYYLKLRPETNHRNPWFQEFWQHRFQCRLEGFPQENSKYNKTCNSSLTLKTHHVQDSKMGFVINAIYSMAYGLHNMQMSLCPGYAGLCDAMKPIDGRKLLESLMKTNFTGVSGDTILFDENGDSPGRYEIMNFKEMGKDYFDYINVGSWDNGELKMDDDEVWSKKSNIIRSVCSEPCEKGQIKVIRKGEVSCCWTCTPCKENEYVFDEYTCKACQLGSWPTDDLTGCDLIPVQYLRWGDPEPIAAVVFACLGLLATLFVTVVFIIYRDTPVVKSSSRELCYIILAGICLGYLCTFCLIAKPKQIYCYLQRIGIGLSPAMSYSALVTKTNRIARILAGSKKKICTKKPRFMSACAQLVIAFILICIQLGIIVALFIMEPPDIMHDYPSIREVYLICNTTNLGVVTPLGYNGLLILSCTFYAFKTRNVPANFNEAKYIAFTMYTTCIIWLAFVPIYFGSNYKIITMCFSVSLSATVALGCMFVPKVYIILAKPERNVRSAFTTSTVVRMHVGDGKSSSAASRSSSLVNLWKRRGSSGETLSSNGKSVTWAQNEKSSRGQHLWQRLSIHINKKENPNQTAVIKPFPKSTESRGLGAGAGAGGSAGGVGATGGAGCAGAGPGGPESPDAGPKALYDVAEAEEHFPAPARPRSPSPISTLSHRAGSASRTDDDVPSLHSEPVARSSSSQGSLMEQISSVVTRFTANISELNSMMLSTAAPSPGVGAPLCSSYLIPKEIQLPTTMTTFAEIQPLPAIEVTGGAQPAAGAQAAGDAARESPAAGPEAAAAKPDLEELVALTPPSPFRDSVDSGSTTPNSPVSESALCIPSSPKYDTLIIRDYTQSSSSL
# Assay procedure: Cell-based functional Ca2+ mobilization assay (FDSS), potentiation of glutamate EC20 response
# Recorded conditions: H10H cell-line; maximum % effect as percent of response to maximally effective glutamate; glutamate EC20 present; read-out: Emax (%)
Measured quantity: Emax (%)

Example entries begin here.
O=C1c2cc(COc3ccccc3)nn2CCN1C[C@@H]1CC1(F)F [Compound 2] :: 65
O=C1c2cc(COc3ccccc3)nn2CCN1C1CCCC1 [Compound 7] :: 48

a = O=C1c2cc(COc3ccccc3)nn2CCN1C1CCOC1 (racemic) [Compound 12]
b = O=C1c2cc(COc3ccccc3)nn2CCN1CC1CC(F)(F)C1 [Compound 10]
When the recorded Emax values are compared, which is smaller: that of a or that of b ? Use the label to indicate which entry you chose. a
(a: 25%, b: 72%)
